experiment: Apparent permeability across apical to basolateral side of human Caco2 cells at 5 uM after 120 mins by LC/MS/MS analysis; format: ADME, cell-based; details: Caco-2
measurement type: Papp A→B at 2 h, 5 µM

stdin: Name the reported Papp A→B at 2 h, 5 µM value associated with the molecule CN1C/C=C/CCOc2cccc(c2)-c2ccnc(n2)Nc2cccc(c2)C1
stdout: 28 ×10⁻⁶ cm/s

====

experiment: Half life in human at 25 mg, po administered through fat rich diet; assay type: ADME, organism-based; settings: in vivo
measurement type: half-life

stdin: Name the reported half-life value associated with the molecule CO[C@H]1/C=C/O[C@@]2(C)Oc3c(C)c(O)c4c(=O)c(c5oc6cc(N7CCN(CC(C)C)CC7)cc(O)c6nc-5c4c3C2=O)NC(=O)/C(C)=C\C=C\[C@H](C)[C@H](O)[C@@H](C)[C@@H](O)[C@@H](C)[C@H](OC(C)=O)[C@@H]1C [RIFALAZIL]
stdout: 4.17 days
